- test-target: Tripartite terminase subunit 3 (Human betaherpesvirus 5)
- Sequence (P16732 whole entry): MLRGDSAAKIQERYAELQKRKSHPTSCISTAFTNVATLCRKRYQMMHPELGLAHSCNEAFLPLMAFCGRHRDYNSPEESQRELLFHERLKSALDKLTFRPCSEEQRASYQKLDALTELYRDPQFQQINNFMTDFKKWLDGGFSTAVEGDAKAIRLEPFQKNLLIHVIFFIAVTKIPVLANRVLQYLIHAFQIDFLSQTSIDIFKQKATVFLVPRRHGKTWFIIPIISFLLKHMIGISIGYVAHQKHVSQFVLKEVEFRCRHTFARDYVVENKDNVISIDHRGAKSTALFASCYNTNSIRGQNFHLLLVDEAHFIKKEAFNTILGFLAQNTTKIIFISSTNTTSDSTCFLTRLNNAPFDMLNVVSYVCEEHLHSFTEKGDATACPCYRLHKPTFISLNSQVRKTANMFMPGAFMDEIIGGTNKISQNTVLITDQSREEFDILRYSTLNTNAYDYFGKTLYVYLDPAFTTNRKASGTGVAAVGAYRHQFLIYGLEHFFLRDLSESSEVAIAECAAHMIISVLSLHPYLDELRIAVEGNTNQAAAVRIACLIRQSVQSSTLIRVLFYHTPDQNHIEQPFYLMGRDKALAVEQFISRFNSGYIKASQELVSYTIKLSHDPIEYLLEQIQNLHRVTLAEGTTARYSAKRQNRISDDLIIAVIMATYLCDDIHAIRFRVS
- procedure-text: Inhibition of Human Cytomegalovirus C-terminal UL89 […] using (5-tcggtgcgggcctcttcgctattacgccagctggcgaaagggggatgtgctgcaaggcga as a substrate preincubated for 15 mins followed by substrate addition and measured after 30 mins by plate reader endonuclease assay
pIC50: −log10 of the molar value.
Please enter Y where pIC50 is greater than or equal to 6, and N where it is lower.

INSERT INTO assay_data (smiles_code, assigned_category) VALUES
  ('O=C(O)c1cn(Cc2ccc(F)c(Cl)c2)cc(O)c1=O', 'N');

Q: Please tell me: is the compound Cc1ccc(CNC(=O)c2nc(-c3ccccc3)c3cccnc3c2O)cc1 at or over 6 in terms of pIC50?
Result: N

Q: Please tell me: is the compound O=C(O)c1cn(-c2ccccc2)cc(O)c1=O at or over 6 in terms of pIC50?
Result: N

Q: Please tell me: is the compound O=c1cc(Nc2ccc(-c3cccc(O)c3)cc2)[nH]c(=O)n1O at or over 6 in terms of pIC50?
Result: N

Q: Please tell me: is the compound O=c1cc(Nc2cccc(-c3ccc(Cl)cc3)c2)[nH]c(=O)n1O at or over 6 in terms of pIC50?
Result: N

Q: Please tell me: is the compound NC(=O)c1cn(Cc2ccc(F)cc2)cc(O)c1=O at or over 6 in terms of pIC50?
Result: N

Q: Please tell me: is the compound O=c1[nH]c2sc(-c3ccccc3)cc2c(=O)n1O at or over 6 in terms of pIC50?
Result: N

Q: Please tell me: is the compound Cn1c(Nc2ccc(-c3ccccc3)cc2)cc(=O)n(O)c1=O at or over 6 in terms of pIC50?
Result: N

Q: Please tell me: is the compound COc1ccc(-c2cccc(Nc3cc(=O)n(O)c(=O)[nH]3)c2)cc1 at or over 6 in terms of pIC50?
Result: N

Q: Please tell me: is the compound O=c1[nH]c2sccc2c(=O)n1O at or over 6 in terms of pIC50?
Result: Y

Q: Please tell me: is the compound COc1cccc(OC)c1-c1cccc(Nc2cc(=O)n(O)c(=O)[nH]2)c1 at or over 6 in terms of pIC50?
Result: N
